molecular target: Human PD-L1/PD-1 (Homo sapiens, UniProt Q9NZQ7); construct: TVMV protease cleavage site (C); made in house; host or cells: HEK293T cells; experiment: HTRF Human PD-L1/PD-1 binding assay (PD-1-Ig/PD-L1-His); details: PD-L1-His 10 nM, PD-1-Ig 20 nM; read-out: HTRF Human PD-L1/PD-1 Binding Assay IC50
Sequence (Q9NZQ7 with tags, fused parts or gaps): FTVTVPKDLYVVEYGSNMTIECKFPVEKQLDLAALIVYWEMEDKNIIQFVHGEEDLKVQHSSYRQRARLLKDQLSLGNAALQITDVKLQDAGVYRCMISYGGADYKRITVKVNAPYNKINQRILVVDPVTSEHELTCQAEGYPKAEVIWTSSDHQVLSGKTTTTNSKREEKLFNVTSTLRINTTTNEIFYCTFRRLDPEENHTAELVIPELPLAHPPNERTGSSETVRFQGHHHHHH
Where a SMILES comes first, the peptide text is derived from it. Bridges are numbered along the chain shown (N, C = ends). [ ]: non-standard residue; d: D form. Hyp = O=C(O)[C@@H]1C[C@@H](O)CN1; NMeF = CN[C@@H](Cc1ccccc1)C(=O)O; NMeM = CN[C@@H](CCSC)C(=O)O
readout-type: pIC50
// pIC50 here means minus log10 of the molar concentration (mol/L)

Recorded result, CSCC[C@H]1C(=O)N2C[C@H](O)C[C@H]2C(=O)N[C@@H](CC(N)=O)C(=O)N[C@@H](C(C)C)C(=O)N(C)[C@@H](Cc2ccccc2)C(=O)N[C@@H](Cc2ccc(O)cc2)C(=O)N2C[C@H](O)C[C@H]2C(=O)N[C@@H](Cc2c[nH]c3ccccc23)C(=O)N[C@@H](Cc2ccc(O)cc2)C(=O)N[C@@H](CC(C)C)C(=O)N[C@H](C(=O)NCC(N)=O)CSCC(=O)N[C@@H](Cc2ccccc2)C(=O)N(C)[C@@H](Cc2ccccc2)C(=O)N1C [Example 9167] ({CH2CO}-F[NMeF][NMeM][Hyp]NV[NMeF]Y[Hyp]WYLCG-NH2; thioether N-13) , pIC50: 6.00

* * *

target: Human PD-L1/PD-1 (Homo sapiens, UniProt Q9NZQ7); construct: TVMV protease cleavage site (C); made in house; host or cells: HEK293T cells; test: HTRF Human PD-L1/PD-1 binding assay (PD-1-Ig/PD-L1-His); conditions: PD-L1-His 10 nM, PD-1-Ig 20 nM; class symbol; read-out: HTRF Human PD-L1/PD-1 Binding Assay IC50 Range
Where a SMILES comes first, the peptide text is derived from it. Bridges are numbered along the chain shown (N, C = ends). [ ]: non-standard residue; d: D form. Hyp = O=C(O)[C@@H]1C[C@@H](O)CN1; NMeNle = CCCC[C@H](NC)C(=O)O; NMeA = CN[C@@H](C)C(=O)O; Dab = NCC[C@H](N)C(=O)O
Listing: IC50 of selected compounds

compound	endpoint-value
CCCC[C@H]1C(=O)N(C)[C@@H](CCCC)C(=O)NCC(=O)N[C@H](C(=O)NCC(N)=O)CSCC(=O)N[C@@H](Cc2ccc(O)cc2)C(=O)N(C)[C@@H](C)C(=O)N[C@@H](CC(N)=O)C(=O)N2CCC[C@H]2C(=O)N[C@@H](Cc2c[nH]cn2)C(=O)N[C@@H](CCC(N)=O)C(=O)N2C[C@H](O)C[C@H]2C(=O)N[C@@H](Cc2c[nH]c3ccccc23)C(=O)NCC(=O)N[C@@H](Cc2c[nH]c3ccccc23)C(=O)N1C [Example 5198] ({CH2CO}-Y[NMeA]NPHQ[Hyp]WGW[NMeNle][NMeNle]GCG-NH2; thioether N-14)	10 to 99.9 nM

Recorded result, CCCC[C@H]1C(=O)N(C)[C@@H](CCCC)C(=O)N[C@@H](CCC(=O)O)C(=O)N[C@H](C(=O)NCC(N)=O)CSCC(=O)N[C@@H](Cc2ccc(O)cc2)C(=O)N(C)[C@@H](C)C(=O)N[C@@H](CC(=O)O)C(=O)N2CCC[C@H]2C(=O)N[C@@H](CO)C(=O)N[C@@H](CC(C)C)C(=O)N2C[C@H](O)C[C@H]2C(=O)N[C@@H](Cc2c[nH]c3ccccc23)C(=O)N[C@@H](CCN)C(=O)N[C@@H](Cc2c[nH]c3ccccc23)C(=O)N1C [Example 5179] ({CH2CO}-Y[NMeA]DPSL[Hyp]W[Dab]W[NMeNle][NMeNle]ECG-NH2; thioether N-14) , IC50: 1 to 9.9 nM

* * *

target: Human PD-L1/PD-1 (Homo sapiens); construct: TVMV protease cleavage site (C); made in house; host or cells: HEK293T cells; assay: HTRF Human PD-L1/PD-1 binding assay (PD-1-Ig/PD-L1-His); details: PD-L1-His 10 nM, PD-1-Ig 20 nM; class symbol; read-out: HTRF Human PD-L1/PD-1 Binding Assay IC50 Range
Where a SMILES comes first, the peptide text is derived from it. Bridges are numbered along the chain shown (N, C = ends). [ ]: non-standard residue; d: D form. Phe(4-F) = N[C@@H](Cc1ccc(F)cc1)C(=O)O; NMeF = CN[C@@H](Cc1ccccc1)C(=O)O; NMeNle = CCCC[C@H](NC)C(=O)O; Orn = NCCC[C@H](N)C(=O)O
readout-type: IC50

Recorded result, CCCC[C@H]1C(=O)N[C@@H](CCC(N)=O)C(=O)N2CCC[C@@H]2C(=O)N[C@@H](Cc2c[nH]c3ccccc23)C(=O)N[C@@H](Cc2ccc(O)cc2)C(=O)N[C@@H](CCCN)C(=O)N[C@H](C(=O)NCC(N)=O)CSCC(=O)N[C@@H](Cc2ccc(F)cc2)C(=O)N(C)[C@@H](Cc2ccccc2)C(=O)N(C)[C@@H](CCCC)C(=O)N2CCC[C@@H]2C(=O)N[C@@H](CC(=O)O)C(=O)N[C@@H](C(C)C)C(=O)N1C [Example 9217] ({CH2CO}-[Phe(4-F)][NMeF][NMeNle][dP]DV[NMeNle]Q[dP]WY[Orn]CG-NH2; thioether N-13) , IC50: 100 to 990 nM

* * *

biological target: Human PD-L1/PD-1 (Homo sapiens); construct: TVMV protease cleavage site (C); made in house; host or cells: HEK293T cells; assay: HTRF Human PD-L1/PD-1 binding assay (PD-1-Ig/PD-L1-His); settings: PD-L1-His 10 nM, PD-1-Ig 20 nM; class symbol; read-out: HTRF Human PD-L1/PD-1 Binding Assay IC50 Range
Where a SMILES comes first, the peptide text is derived from it. Bridges are numbered along the chain shown (N, C = ends). [ ]: non-standard residue; d: D form. Hyp = O=C(O)[C@@H]1C[C@@H](O)CN1; NMeNle = CCCC[C@H](NC)C(=O)O; NMeA = CN[C@@H](C)C(=O)O
readout-type: IC50

Recorded result, CCCC[C@H]1C(=O)N(C)[C@@H](CCCC)C(=O)N[C@@H](CCC(=O)O)C(=O)N[C@H](C(=O)NCC(N)=O)CSCC(=O)N[C@@H](Cc2ccc(O)cc2)C(=O)N(C)[C@@H](C)C(=O)N[C@@H](CC(=O)O)C(=O)N2CCC[C@H]2C(=O)N[C@@H](CO)C(=O)N[C@@H](CCC(N)=O)C(=O)N2C[C@H](O)C[C@H]2C(=O)N[C@@H](Cc2c[nH]c3ccccc23)C(=O)N[C@@H](CO)C(=O)N[C@@H](Cc2c[nH]c3ccccc23)C(=O)N1C [Example 5214] ({CH2CO}-Y[NMeA]DPSQ[Hyp]WSW[NMeNle][NMeNle]ECG-NH2; thioether N-14) , IC50: 1 to 9.9 nM

* * *

target: Human PD-L1/PD-1 (Homo sapiens, UniProt Q9NZQ7); construct: TVMV protease cleavage site (C); made in house; host or cells: HEK293T cells; assay: HTRF Human PD-L1/PD-1 binding assay (PD-1-Ig/PD-L1-His); conditions: PD-L1-His 10 nM, PD-1-Ig 20 nM; class symbol; read-out: HTRF Human PD-L1/PD-1 Binding Assay IC50 Range
pIC50: −log10 of the molar value. Where a SMILES comes first, the peptide text is derived from it. Bridges are numbered along the chain shown (N, C = ends). [ ]: non-standard residue; d: D form. ξ: configuration not given here. ξαMeW = CC(N)(Cc1c[nH]c2ccccc12)C(=O)O; NMeF = CN[C@@H](Cc1ccccc1)C(=O)O; NMeNle = CCCC[C@H](NC)C(=O)O; Sar = CNCC(=O)O
readout-type: pIC50

The observed pIC50 for CCCC[C@H]1C(=O)N(C)CC(=O)N[C@@H](CC(=O)O)C(=O)N[C@@H](C(C)C)C(=O)N[C@@H](Cc2ccccc2)C(=O)N[C@@H](Cc2ccc(O)cc2)C(=O)N(C)CC(=O)NC(C)(Cc2c[nH]c3ccccc23)C(=O)N[C@@H](Cc2ccc(O)cc2)C(=O)N[C@@H](CC(C)C)C(=O)N[C@H](C(=O)NCC(N)=O)CSCC(=O)N[C@@H](Cc2ccccc2)C(=O)N(C)[C@@H](Cc2ccccc2)C(=O)N1C (stereo partly shown) [Example 3639] ({CH2CO}-F[NMeF][NMeNle][Sar]DVFY[Sar][ξαMeW]YLCG-NH2; thioether N-13) when tested with Human PD-L1/PD-1 (Homo sapiens, UniProt Q9NZQ7) stands at 5.00 to 6.00
